# system-under-test: human TYK2 kinase domain (JH1) (Homo sapiens)
# Construct: recombinantly generated catalytic kinase (also known as JH1) domain of human JAK1, JAK2, JAK3 and TYK2
# experiment-description: JH1 biochemical assay for TYK2 (ADP-Glo kinase assay, recombinant JH1 catalytic domain, JAK3-974 peptide, 10 μM ATP)
# experimental-setup: JH1 kinase domain, ADP-Glo
# Experimental: Compounds of the disclosure were assessed for their ability to inhibit TYK2, JAK1, JAK2, and JAK3 activity. The inhibitory properties of the compounds of the disclosure described herein can be evidenced by testing in any one of the following protocols. The kinase activity of recombinantly generated catalytic kinase (also known as JH1) domain of human JAK1, JAK2, JAK3 and TYK2 were evaluated in a plate-based assay using the ADP-Glo™ Kinase Assay platform. […]
Counter-ions that a name gives are not always drawn.
readout-name: IC50

INSERT INTO assay_data (molecule, system_under_test, readout_name, observed) VALUES
  ('Cn1cc(-c2cc3c(N4CC[C@](C#N)(C5COC5)C4=O)ccnn3c2)cn1 (single isomer, unassigned) [Example 44]', 'human TYK2 kinase domain (JH1) (Homo sapiens)', 'IC50', '> 100 nM'),
  ('C[C@@H]1CN(c2ccnn3cc(-c4cccnc4)cc23)C(=O)[C@]1(C#N)C1CC1 [Example 60]', 'human TYK2 kinase domain (JH1) (Homo sapiens)', 'IC50', '5 to 20 nM'),
  ('C[C@@H]1CN(c2ccnn3cc(-c4ccc(CC#N)cn4)cc23)C(=O)[C@]1(C#N)C1CC1 [Example 127, trifluoroacetate]', 'human TYK2 kinase domain (JH1) (Homo sapiens)', 'IC50', '5 to 20 nM'),
  ('C[C@@H]1CN(c2ccnn3cc(-c4ccc5c(cnn5C)c4)cc23)C(=O)[C@]1(C#N)C1CC1 [Example 55]', 'human TYK2 kinase domain (JH1) (Homo sapiens)', 'IC50', '< 5 nM'),
  ('C[C@@H]1CN(c2ccnn3cc(-c4cn[nH]c4)cc23)C(=O)[C@]1(C#N)C1CC1 [Example 59, trifluoroacetate]', 'human TYK2 kinase domain (JH1) (Homo sapiens)', 'IC50', '< 5 nM'),
  ('COc1cncc(-c2cc3c(N4C[C@@H](C)[C@@](C#N)(C5CC5)C4=O)ccnn3c2)c1 [Example 82]', 'human TYK2 kinase domain (JH1) (Homo sapiens)', 'IC50', '20 to 50 nM');

Lookup: For the molecule shown here, Cc1cc(-c2cc3c(N4C[C@@H](C)[C@@](C#N)(C5CC5)C4=O)ccnn3c2)ccn1 [Example 77] , give the reported IC50.
Found: < 5 nM

----------
Listing: pIC50 of selected compounds
# system-under-test: JAK2 kinase activity on STAT5 in TF1 cells (Homo sapiens)
# Sequence (O60674 whole entry): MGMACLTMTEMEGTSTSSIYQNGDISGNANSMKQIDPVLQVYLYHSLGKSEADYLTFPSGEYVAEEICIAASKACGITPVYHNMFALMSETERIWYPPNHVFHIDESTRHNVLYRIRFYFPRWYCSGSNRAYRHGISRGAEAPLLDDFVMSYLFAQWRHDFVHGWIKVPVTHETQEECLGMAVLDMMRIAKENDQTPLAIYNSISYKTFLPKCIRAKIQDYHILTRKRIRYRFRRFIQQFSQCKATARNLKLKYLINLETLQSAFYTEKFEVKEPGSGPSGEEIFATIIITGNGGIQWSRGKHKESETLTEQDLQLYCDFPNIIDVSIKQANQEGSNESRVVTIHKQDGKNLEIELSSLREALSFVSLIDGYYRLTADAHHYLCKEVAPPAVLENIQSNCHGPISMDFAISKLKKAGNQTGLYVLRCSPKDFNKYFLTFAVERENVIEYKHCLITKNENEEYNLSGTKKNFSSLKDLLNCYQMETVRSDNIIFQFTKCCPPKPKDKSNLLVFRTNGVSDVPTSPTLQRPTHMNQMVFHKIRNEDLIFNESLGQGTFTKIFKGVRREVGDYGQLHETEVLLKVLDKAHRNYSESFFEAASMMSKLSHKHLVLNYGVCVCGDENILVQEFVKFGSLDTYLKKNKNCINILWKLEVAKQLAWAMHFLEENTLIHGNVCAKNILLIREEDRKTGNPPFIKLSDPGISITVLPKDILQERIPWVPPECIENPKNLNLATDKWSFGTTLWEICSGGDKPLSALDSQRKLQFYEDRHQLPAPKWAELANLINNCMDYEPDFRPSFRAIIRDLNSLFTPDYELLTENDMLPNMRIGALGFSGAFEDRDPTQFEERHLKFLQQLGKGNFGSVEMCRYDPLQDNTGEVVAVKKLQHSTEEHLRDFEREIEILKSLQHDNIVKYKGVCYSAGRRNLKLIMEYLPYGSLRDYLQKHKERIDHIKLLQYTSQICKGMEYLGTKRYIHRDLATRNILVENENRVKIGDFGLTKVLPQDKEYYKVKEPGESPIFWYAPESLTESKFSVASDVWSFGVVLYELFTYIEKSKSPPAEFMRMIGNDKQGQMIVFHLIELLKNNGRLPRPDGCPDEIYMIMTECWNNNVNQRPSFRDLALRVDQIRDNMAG
# experiment-description: pSTAT5 cell assay (MSD; TF1 cells, 30 ng/mL IL-3 stimulation)
# Type: cell-based
# experimental-setup: 30 ng/mL IL-3, 15 minutes
pIC50: −log10 of the molar value. Structures can show the parent of a compound that is named as a salt.

Reference set, count: 5
INSERT INTO results (compound, observed) VALUES
  ('Cc1ncc(-c2cn3nccc3c(N3C[C@@H](C)[C@@](C#N)(C4CC4)C3=O)n2)s1', '5.30 to 6.00'),
  ('C[C@@H]1CN(c2ccnn3cc(-c4ccc5c(cnn5C)c4)cc23)C(=O)[C@]1(C#N)C1CC1', '5.30 to 6.00'),
  ('C[C@@H]1CN(c2nn(-c3cnn(C4COC4)c3)c3cnccc23)C(=O)[C@]1(C#N)C1CC1', '5.00 to 5.30'),
  ('C[C@@H]1CN(c2ccnn3cc(-c4cnn(C5CC6(C5)CN(C)C6)c4)cc23)C(=O)[C@]1(C#N)C1CC1', '5.30 to 6.00'),
  ('CNC(=O)c1ccc(-c2cn3nccc3c(N3C[C@@H](C)[C@@](C#N)(C4CC4)C3=O)n2)cn1 [Example 227, trifluoroacetate]', '5.30 to 6.00');

Lookup: For the compound shown here, "CC(=O)Nc1cc(-c2cc3c(N4C[C@@H](C)[C@@](C#N)(C5CC5)C4=O)ccnn3c2)ccn1" , give the reported pIC50.
Found: 5.00 to 5.30

Lookup: For the compound shown here, "C[C@@H]1CN(c2ccnn3cc(-c4cccnc4)cc23)C(=O)[C@]1(C#N)C1CC1" , give the reported pIC50.
Found: < 5.00

Lookup: For the compound shown here, C[C@@H]1CN(c2nc(-c3cnc4c(c3)OCC(=O)N4C)cn3nccc23)C(=O)[C@]1(C#N)C1CC1 [Example 235, trifluoroacetate] , give the reported pIC50.
Found: < 5.00

----------
# system-under-test: human TYK2 kinase domain (JH1) (Homo sapiens, UniProt P29597)
# Construct: recombinantly generated catalytic kinase (also known as JH1) domain of human JAK1, JAK2, JAK3 and TYK2
# Sequence (P29597 897-1176 limits assumed): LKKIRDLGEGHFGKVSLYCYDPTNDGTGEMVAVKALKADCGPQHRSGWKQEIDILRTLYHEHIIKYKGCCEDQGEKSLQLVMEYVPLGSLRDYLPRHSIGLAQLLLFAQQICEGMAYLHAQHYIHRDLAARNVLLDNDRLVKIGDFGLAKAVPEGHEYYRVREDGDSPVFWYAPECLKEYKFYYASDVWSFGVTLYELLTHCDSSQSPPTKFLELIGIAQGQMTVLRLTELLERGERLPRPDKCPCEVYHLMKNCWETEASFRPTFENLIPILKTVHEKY
# experiment-description: JH1 biochemical assay for TYK2 (ADP-Glo kinase assay, recombinant JH1 catalytic domain, JAK3-974 peptide, 10 μM ATP)
# experimental-setup: JH1 kinase domain, ADP-Glo
Structures can show the parent of a compound that is named as a salt.
Listing: IC50 of selected compounds

Reference set, count: 5
INSERT INTO results (compound, observed) VALUES
  ('COc1cc(-c2cc3c(N4CC[C@@](C#N)(C5CC5)C4=O)ccnc3[nH]2)ccn1', '< 5 nM'),
  ('COc1cc(-c2cc3c(N4C[C@@H](C)[C@@](C#N)(C5CC5)C4=O)ccnn3c2)ccn1', '5 to 20 nM'),
  ('[2H]C([2H])([2H])n1cc(-c2cn3nccc3c(N3C[C@@H](C)[C@@](C#N)(C4CC4)C3=O)n2)cn1', '< 5 nM'),
  ('Cc1cc(-c2cc3c(N4C[C@@H](C)[C@@](C#N)(C5CC5)C4=O)ccnn3c2)ncc1F [Example 142, trifluoroacetate]', '20 to 50 nM'),
  ('CNC(=O)c1ccc(-c2cc3c(N4C[C@@H](C)[C@@](C#N)(C5CC5)C4=O)ccnn3c2)cn1', '5 to 20 nM');

Lookup: For the compound shown here, Cn1cc(-c2cc3c(N4CC[C@H](C5CC5)C4=O)ccnn3c2)cn1 (single isomer, unassigned) , give the reported IC50.
Found: > 100 nM

Lookup: For the compound shown here, "C[C@@H]1CN(c2ccnn3cc(-c4cnn(-c5cccnc5)c4)cc23)C(=O)[C@]1(C#N)C1CC1" , give the reported IC50.
Found: < 5 nM

Lookup: For the compound shown here, C[C@@H]1CN(c2ccnn3cc(-c4cccc5cncn45)cc23)C(=O)[C@]1(C#N)C1CC1 [Example 128, trifluoroacetate] , give the reported IC50.
Found: 5 to 20 nM

Lookup: For the compound shown here, "C[C@@H]1CN(c2nc(-c3cnc4c(c3)CCN4)cn3nccc23)C(=O)[C@]1(C#N)C1CC1" , give the reported IC50.
Found: < 5 nM

Lookup: For the compound shown here, "CC[C@@H]1CN(c2ccnn3cc(-c4cnn(C)c4)cc23)C(=O)[C@]1(C#N)C1CC1" , give the reported IC50.
Found: 5 to 20 nM

Lookup: For the compound shown here, C[C@@H]1CN(c2ccnn3cc(-c4nccc(C(F)(F)F)n4)cc23)C(=O)[C@]1(C#N)C1CC1 [Example 120, trifluoroacetate] , give the reported IC50.
Found: > 100 nM

Lookup: For the compound shown here, "C[C@H]1C[C@@](C#N)(C2CC2)C(=O)N1c1ccnn2cc(-c3cnn(C)c3)cc12" , give the reported IC50.
Found: > 100 nM

----------
Listing: IC50 of selected compounds
# system-under-test: JAK1 kinase activity on STAT3 in TF1 cells (Homo sapiens)
# Sequence (P23458 whole entry): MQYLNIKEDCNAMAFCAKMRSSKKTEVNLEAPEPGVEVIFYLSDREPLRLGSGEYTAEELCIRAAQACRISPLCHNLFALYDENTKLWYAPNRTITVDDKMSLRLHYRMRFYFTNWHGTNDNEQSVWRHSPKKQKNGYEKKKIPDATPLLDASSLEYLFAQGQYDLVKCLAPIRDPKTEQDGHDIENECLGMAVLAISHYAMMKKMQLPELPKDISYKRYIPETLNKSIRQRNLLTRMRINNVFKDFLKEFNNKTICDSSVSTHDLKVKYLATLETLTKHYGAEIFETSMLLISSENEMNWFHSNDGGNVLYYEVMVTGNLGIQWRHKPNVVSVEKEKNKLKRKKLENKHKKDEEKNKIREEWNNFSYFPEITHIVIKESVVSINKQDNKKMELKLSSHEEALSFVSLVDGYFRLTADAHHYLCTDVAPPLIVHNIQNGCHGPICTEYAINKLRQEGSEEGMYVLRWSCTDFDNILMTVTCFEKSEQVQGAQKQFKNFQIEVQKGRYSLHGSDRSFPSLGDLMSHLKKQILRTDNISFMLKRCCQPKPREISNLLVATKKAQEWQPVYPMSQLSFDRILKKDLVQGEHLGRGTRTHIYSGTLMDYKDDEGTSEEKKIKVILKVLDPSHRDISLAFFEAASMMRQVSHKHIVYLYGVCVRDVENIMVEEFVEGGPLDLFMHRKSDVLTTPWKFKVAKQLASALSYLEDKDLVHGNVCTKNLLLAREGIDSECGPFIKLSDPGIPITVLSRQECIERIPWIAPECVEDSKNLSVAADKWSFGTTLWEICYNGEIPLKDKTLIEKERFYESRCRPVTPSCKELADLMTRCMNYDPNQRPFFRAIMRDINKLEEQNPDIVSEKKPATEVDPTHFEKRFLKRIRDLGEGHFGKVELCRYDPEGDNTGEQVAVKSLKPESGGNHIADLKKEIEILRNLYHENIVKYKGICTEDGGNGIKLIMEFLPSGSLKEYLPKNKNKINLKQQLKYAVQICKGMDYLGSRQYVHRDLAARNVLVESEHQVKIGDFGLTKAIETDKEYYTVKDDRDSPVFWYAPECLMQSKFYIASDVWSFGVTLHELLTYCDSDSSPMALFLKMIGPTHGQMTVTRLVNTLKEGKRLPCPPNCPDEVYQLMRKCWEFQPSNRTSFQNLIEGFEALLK
# experiment-description: pSTAT3 cell assay (MSD; TF1 cells, 30 ng/mL IL-6 stimulation)
# experimental-setup: 30 ng/mL IL-6, 15 minutes
Where a name gives a salt, the structure may show the parent alone.

Reference set, count: 6
INSERT INTO results (compound, observed) VALUES
  ('C[C@@H]1CN(c2nc(-c3cnn(C)c3)cn3nccc23)C(=O)[C@]1(C#N)C1CC1 [Example 184]', '100 to 1000 nM'),
  ('Cc1cnn2cc(-c3cnn(C)c3)nc(N3C[C@@H](C)[C@@](C#N)(C4CC4)C3=O)c12 [Example 186]', '> 10000 nM'),
  ('C[C@@H]1CN(c2nc(-c3ccc(=O)n(C)c3)cn3nccc23)C(=O)[C@]1(C#N)C1CC1 [Example 245]', '100 to 1000 nM'),
  ('C[C@@H]1CN(c2ccnn3cc(-c4cnn(C5COC5)c4)cc23)C(=O)[C@]1(C#N)C1CC1 [Example 97]', '1000 to 5000 nM'),
  ('C[C@@H]1CN(c2ccnn3cc(-c4ccc5nccn5c4)cc23)C(=O)[C@]1(C#N)C1CC1 [Example 88]', '100 to 1000 nM'),
  ('CC(=O)Nc1cccc(-c2cc3c(N4C[C@@H](C)[C@@](C#N)(C5CC5)C4=O)ccnn3c2)n1 [Example 131, trifluoroacetate]', '100 to 1000 nM');

Lookup: For the compound shown here, C[C@@H]1CN(c2ccnn3cc(-c4cnn(C5CCOC5)c4)cc23)C(=O)[C@]1(C#N)C1CC1 (stereo partly shown) [Example 162] , give the reported IC50.
Found: 1000 to 5000 nM
